Where do the numbers come from? From patent US20240209076A1.

- System: recombinant human IL-6 (human, UniProt P05231 30-212)
- Sequence (P05231 30-212 limits assumed): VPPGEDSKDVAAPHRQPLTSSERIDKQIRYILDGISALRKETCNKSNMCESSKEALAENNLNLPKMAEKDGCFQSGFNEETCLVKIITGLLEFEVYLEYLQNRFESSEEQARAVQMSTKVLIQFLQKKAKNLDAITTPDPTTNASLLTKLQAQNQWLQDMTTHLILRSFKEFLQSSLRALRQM
- Test Description: SPR, IL-6 on CM5 chip, Fab lysate, 25 C
Observation Type: koff (s⁻¹)
Kindly answer with a numeric value in s⁻¹, unit omitted.

Worked set:
Binder: anti-IL-6 Fab, light chain S24K (Fab, V domains shown, see m39) VH: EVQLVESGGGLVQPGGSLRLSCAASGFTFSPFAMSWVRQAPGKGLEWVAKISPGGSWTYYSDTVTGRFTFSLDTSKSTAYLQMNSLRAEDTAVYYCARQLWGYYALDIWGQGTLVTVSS VL: DIQLTQSPSSLSASVGDRVTITCKASISVSYMYWYQQKPGKAPKLLIYDMSNLASGVPSRFSGSGSGTDFTLTISSLQPEDFATYYCMQWSGYPYTFGQGTKVEIK
Numeric Readout: 0.00416

Binder: anti-IL-6 Fab, heavy chain G66D (Fab, V domains shown, see m39) VH: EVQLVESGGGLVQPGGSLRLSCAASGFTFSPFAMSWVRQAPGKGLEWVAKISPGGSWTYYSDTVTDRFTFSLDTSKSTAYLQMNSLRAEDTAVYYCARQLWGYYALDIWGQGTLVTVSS VL: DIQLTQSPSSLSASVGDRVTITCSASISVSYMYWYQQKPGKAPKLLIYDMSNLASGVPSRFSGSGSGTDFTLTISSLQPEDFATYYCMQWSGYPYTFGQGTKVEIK
Numeric Readout: 0.00607

Binder: anti-IL-6 Fab, heavy chain F29H (Fab, V domains shown, see m39) VH: EVQLVESGGGLVQPGGSLRLSCAASGFTHSPFAMSWVRQAPGKGLEWVAKISPGGSWTYYSDTVTGRFTFSLDTSKSTAYLQMNSLRAEDTAVYYCARQLWGYYALDIWGQGTLVTVSS VL: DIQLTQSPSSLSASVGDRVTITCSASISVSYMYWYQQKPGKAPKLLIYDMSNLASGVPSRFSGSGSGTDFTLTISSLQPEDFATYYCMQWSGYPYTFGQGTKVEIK
Numeric Readout: 0.00524

Input: What measured koff goes with anti-IL-6 Fab, light chain S24P (Fab, V domains shown, see m39) VH: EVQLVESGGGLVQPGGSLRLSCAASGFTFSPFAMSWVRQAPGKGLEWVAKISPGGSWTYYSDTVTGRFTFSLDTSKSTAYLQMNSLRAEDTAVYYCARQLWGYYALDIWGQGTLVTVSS VL: DIQLTQSPSSLSASVGDRVTITCPASISVSYMYWYQQKPGKAPKLLIYDMSNLASGVPSRFSGSGSGTDFTLTISSLQPEDFATYYCMQWSGYPYTFGQGTKVEIK ?
Output: 0.00397

Input: What measured koff goes with anti-IL-6 Fab, light chain S26K (Fab, V domains shown, see m39) VH: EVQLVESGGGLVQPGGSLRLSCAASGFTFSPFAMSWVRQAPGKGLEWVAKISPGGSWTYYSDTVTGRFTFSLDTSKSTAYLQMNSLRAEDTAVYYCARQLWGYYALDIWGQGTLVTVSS VL: DIQLTQSPSSLSASVGDRVTITCSAKISVSYMYWYQQKPGKAPKLLIYDMSNLASGVPSRFSGSGSGTDFTLTISSLQPEDFATYYCMQWSGYPYTFGQGTKVEIK ?
Output: 0.00441

Input: What measured koff goes with anti-IL-6 Fab, light chain Y95G (Fab, V domains shown, see m39) VH: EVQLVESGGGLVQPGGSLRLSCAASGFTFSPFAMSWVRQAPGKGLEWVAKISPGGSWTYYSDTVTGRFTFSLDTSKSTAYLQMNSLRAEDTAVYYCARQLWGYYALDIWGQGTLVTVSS VL: DIQLTQSPSSLSASVGDRVTITCSASISVSYMYWYQQKPGKAPKLLIYDMSNLASGVPSRFSGSGSGTDFTLTISSLQPEDFATYYCMQWSGYPGTFGQGTKVEIK ?
Output: 0.00462

Input: What measured koff goes with anti-IL-6 Fab, light chain L53R (Fab, V domains shown, see m39) VH: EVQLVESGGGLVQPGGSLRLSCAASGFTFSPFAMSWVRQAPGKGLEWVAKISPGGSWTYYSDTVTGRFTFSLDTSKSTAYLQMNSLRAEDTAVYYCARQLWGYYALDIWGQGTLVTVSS VL: DIQLTQSPSSLSASVGDRVTITCSASISVSYMYWYQQKPGKAPKLLIYDMSNRASGVPSRFSGSGSGTDFTLTISSLQPEDFATYYCMQWSGYPYTFGQGTKVEIK ?
Output: 0.005

Input: What measured koff goes with anti-IL-6 Fab, light chain Q89S (Fab, V domains shown, see m39) VH: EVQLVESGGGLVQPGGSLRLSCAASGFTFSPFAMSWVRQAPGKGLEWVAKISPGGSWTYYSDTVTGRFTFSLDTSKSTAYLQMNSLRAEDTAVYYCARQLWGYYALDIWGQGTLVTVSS VL: DIQLTQSPSSLSASVGDRVTITCSASISVSYMYWYQQKPGKAPKLLIYDMSNLASGVPSRFSGSGSGTDFTLTISSLQPEDFATYYCMSWSGYPYTFGQGTKVEIK ?
Output: 0.00601

Input: What measured koff goes with anti-IL-6 Fab, light chain I47V (Fab, V domains shown, see m39) VH: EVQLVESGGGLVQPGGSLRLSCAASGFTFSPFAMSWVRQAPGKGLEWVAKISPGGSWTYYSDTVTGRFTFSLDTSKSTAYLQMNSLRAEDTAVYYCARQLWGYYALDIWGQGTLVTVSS VL: DIQLTQSPSSLSASVGDRVTITCSASISVSYMYWYQQKPGKAPKLLVYDMSNLASGVPSRFSGSGSGTDFTLTISSLQPEDFATYYCMQWSGYPYTFGQGTKVEIK ?
Output: 0.00493

Input: What measured koff goes with anti-IL-6 Fab, heavy chain G102D (Fab, V domains shown) VH: EVQLVESGGGLVQPGGSLRLSCAASGFTFSPFAMSWVRQAPGKGLEWVAKISPGGSWTYYSDTVTGRFTFSLDTSKSTAYLQMNSLRAEDTAVYYCARQLWDYYALDIWGQGTLVTVSS VL: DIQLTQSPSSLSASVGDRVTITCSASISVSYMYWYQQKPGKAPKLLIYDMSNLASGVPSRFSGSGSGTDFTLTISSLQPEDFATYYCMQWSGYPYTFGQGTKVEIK ?
Output: 0.00389
